# Tgt: human alpha-synuclein (human, UniProt P37840 1-140)
# Protocol Text: SPR Biacore 3000, IgG captured by anti-human IgG on CM5 chip
Assign y to entries whose kon meets or exceeds 70000 M⁻¹ s⁻¹; assign n to the rest.

Answered cases to consult:
8D9 (antibody, V domains shown) VH: QVQLVQSGAEVKKPGASVKVSCKASGYTFTSYWMHWMRQAPGQGLEWIGRIDPNSGTTKYNVNFKTRATLTVDKSTSTAYMELSSLRSEDTAVYYCARLGHYGNLYAKDYWGQGTLVT VL: EIVLTQSPATLSLSPGERATLSCSASSSVSYIHWYQQKPGQAPRRWIYDTSKLASGVPARFSGSGSGTDYTLTISSLEPEDFAVYYCQQWSSNPPTFGQGTKLEIK	y
ch2E6 (antibody, V domains shown, also called chimeric 2E6) VH: QVQLQQPGAELVKPGASVKLSCTASGYTFTSYWMHWMKQRPGRGLEWIGRIDPNSGTTKYNVNFKTKATLTVDKPSSTAYMHLSSLTSEDSAVYYCARLGHYGNLYAMDYWGQGTSVT VL: QIVLTQSPAIMSASPGEKVTMTCSASSSVSYMHWYQQKSGTSPKRWIYDTSKLASGVPTRFSGSGSGTSYSLTISSMDTEDAATYYCQQWSSNPPTFGAGTKLELK	n
9C12 (antibody, V domains shown) VH: QVQLVQSGAEVKKPGASVKVSCKASGYTFTSYWMHWMRQAPGQGLEWIGRIDPNSGTTKYNVNIKTRATLTVDKSTSTAYMELSSLRSEDTAVYYCARLGHYGNLYAMDYWGQGTLVT VL: EIVLTQSPATLSLSPGERATLSCSASSSVSYMHWYQQKPGQAPRRLIYDTSKLASGVPARFSGSGSGTDYTLTISSLEPEDFAVYYCQQWSSNPPTFGQGTKLEIK	n
7C4 (antibody, V domains shown) VH: QVQLVQSGAEVKKPGASVKVSCKASGYTFTRYWMHWMRQAPGQGPEWIGRIDPNSGTTKYNVNFKTRATLTVDKSTSTAYMELSSLRSEDTAVYYCARLGHYGNLYAMDYWGQGTLVT VL: EIVLTQSPATLSLSPGERATLSCSASSSVSFMHWYQQKPGQAPRRWIYDTSKLASGVPARFSGSGSGTDYTLTISSLEPEDFAVYYCQQWSSNPPTFGQGTKLEIK	y

Challenge: Evaluate 2E6-HLD-1 (antibody, V domains shown, Humanized 2E6 tested as IgG; also called Humanized HLD-1) VH: QVQLVQSGAEVKKPGASVKVSCKASGYTFTSYWMHWMRQAPGQGLEWIGRIDPNSGTTKYNVNFKTRATLTVDKSTSTAYMELSSLRSEDTAVYYCARLGHYGNLYAMDYWGQGTLVT VL: EIVLTQSPATLSLSPGERATLSCSASSSVSYMHWYQQKPGQAPRRWIYDTSKLASGVPARFSGSGSGTDYTLTISSLEPEDFAVYYCQQWSSNPPTFGQGTKLEIKR : kon at minimum 70000 M⁻¹ s⁻¹?
Response given: n
